assay-system: UniProt:P30530
Sequence (P30530 whole entry): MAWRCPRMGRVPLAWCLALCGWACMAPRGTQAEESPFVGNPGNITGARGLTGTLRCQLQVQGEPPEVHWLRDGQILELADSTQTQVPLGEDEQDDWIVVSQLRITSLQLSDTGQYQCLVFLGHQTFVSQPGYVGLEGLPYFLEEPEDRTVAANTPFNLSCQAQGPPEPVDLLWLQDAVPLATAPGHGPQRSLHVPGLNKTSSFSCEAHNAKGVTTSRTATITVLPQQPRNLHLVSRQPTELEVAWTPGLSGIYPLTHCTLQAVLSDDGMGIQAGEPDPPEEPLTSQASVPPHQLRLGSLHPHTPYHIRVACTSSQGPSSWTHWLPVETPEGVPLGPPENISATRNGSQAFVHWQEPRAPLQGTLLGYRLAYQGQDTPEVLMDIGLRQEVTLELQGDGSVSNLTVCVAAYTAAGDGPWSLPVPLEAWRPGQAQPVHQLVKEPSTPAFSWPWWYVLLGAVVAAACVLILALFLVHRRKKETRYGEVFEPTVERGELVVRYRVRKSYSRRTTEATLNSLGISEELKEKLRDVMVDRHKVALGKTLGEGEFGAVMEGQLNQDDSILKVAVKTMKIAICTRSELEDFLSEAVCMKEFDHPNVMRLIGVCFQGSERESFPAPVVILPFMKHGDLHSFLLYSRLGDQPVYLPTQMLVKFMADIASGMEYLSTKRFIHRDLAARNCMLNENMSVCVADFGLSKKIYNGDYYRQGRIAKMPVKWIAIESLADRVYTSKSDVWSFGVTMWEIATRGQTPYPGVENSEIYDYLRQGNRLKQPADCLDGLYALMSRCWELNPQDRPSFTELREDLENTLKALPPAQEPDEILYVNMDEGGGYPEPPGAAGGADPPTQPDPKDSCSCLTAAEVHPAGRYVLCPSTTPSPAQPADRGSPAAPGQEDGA
result-type: IC50 (nM)
Numbers only here, please. The scale is nM.

Entry CC(C)n1cc(C(=O)Nc2ccc(Oc3ccnc(NC(=O)C4CC4)c3)c(F)c2)c(=O)n(-c2ccc(F)cc2)c1=O , IC50 reported as 0.9

====

experiment: Clearance in ICR mouse at 1 mg/kg, iv measured upto 24 hrs by LC-MS analysis
Assay type: ADME, organism-based
measurement-setup: in vivo
result-type: clearance (mL/min/kg)
Numbers only here, please. The scale is mL/min/kg.

Entry CC(C)n1cc(C(=O)Nc2ccc(Oc3ccnc(NC(=O)C4CC4)c3)c(F)c2)c(=O)n(-c2ccc(F)cc2)c1=O , clearance reported as 2.29

====

assay-system: Receptor tyrosine-protein kinase erbB-4 (Homo sapiens)
Sequence (Q15303 whole entry, the tested form may be a part): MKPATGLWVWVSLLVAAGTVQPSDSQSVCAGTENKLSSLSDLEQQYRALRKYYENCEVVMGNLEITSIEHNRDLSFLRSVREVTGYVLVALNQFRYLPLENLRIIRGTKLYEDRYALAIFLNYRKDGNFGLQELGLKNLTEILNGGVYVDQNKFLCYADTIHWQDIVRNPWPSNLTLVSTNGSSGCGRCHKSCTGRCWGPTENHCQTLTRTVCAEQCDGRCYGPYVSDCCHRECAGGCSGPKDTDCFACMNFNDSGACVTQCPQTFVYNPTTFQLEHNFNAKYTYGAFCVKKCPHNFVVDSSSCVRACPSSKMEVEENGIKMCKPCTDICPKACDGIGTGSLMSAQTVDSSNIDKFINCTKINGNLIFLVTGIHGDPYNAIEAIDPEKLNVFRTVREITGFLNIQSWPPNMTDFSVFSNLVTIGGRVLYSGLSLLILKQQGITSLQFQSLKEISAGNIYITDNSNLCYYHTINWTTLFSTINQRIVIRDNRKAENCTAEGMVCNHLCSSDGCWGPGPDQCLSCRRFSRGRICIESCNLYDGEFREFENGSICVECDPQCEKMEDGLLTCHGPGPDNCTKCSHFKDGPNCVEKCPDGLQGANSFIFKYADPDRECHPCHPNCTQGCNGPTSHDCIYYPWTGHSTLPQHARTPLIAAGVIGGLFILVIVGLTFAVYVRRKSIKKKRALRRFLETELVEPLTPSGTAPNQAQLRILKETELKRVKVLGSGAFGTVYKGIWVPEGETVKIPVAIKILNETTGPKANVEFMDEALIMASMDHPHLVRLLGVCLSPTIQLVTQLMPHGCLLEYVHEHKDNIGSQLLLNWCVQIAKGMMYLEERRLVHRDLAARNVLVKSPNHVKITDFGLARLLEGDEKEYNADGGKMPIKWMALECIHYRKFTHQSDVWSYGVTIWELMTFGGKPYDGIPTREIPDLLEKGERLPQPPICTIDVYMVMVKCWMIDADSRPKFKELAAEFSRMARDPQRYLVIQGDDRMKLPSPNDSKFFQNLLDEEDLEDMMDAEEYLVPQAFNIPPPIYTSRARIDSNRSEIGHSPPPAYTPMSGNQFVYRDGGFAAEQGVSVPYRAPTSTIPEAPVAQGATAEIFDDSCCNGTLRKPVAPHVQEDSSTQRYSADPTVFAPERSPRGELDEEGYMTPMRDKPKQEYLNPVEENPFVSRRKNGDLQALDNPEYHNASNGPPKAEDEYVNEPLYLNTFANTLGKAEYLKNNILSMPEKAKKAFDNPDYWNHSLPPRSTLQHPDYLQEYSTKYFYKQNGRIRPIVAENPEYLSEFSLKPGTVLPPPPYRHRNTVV
experiment: Inhibition of recombinant human ERBB4 (706 to 991 residues) using poly(Glu, Tyr) 4:1 as substrate incubated for 40 mins in presence of [gamma-33ATP] by scintillation counting based radiometry assay
result-type: IC50

Entry CC(C)n1cc(C(=O)Nc2ccc(Oc3ccnc(NC(=O)C4CC4)c3)c(F)c2)c(=O)n(-c2ccc(F)cc2)c1=O , IC50 reported as > 1000 nM

====

experiment: Tmax in Sprague-Dawley rat at 3 mg/kg, po measured upto 24 hrs by LC-MS analysis
Format: ADME, organism-based
measurement-setup: in vivo
The entries below are paired with their reported Tmax.
Numbers only here, please. The scale is h.

{"smiles-data": "CC(C)n1cc(C(=O)Nc2ccc(Oc3ccnc(NC(=O)C4CC4)c3)c(F)c2)c(=O)n(-c2ccc(F)cc2)c1=O", "Tmax [h]": 1.17}

// moving on: another record for Tmax
Entry CC(C)n1cc(C(=O)Nc2ccc(Oc3ccnc(-c4cn[nH]c4)c3)c(F)c2)c(=O)n(-c2ccc(F)cc2)c1=O , Tmax reported as 1.67
